Numbers sourced from patent US11130756B2.

Target: human TLR7 (Homo sapiens, UniProt Q9NYK1)
Sequence (Q9NYK1 27-1049): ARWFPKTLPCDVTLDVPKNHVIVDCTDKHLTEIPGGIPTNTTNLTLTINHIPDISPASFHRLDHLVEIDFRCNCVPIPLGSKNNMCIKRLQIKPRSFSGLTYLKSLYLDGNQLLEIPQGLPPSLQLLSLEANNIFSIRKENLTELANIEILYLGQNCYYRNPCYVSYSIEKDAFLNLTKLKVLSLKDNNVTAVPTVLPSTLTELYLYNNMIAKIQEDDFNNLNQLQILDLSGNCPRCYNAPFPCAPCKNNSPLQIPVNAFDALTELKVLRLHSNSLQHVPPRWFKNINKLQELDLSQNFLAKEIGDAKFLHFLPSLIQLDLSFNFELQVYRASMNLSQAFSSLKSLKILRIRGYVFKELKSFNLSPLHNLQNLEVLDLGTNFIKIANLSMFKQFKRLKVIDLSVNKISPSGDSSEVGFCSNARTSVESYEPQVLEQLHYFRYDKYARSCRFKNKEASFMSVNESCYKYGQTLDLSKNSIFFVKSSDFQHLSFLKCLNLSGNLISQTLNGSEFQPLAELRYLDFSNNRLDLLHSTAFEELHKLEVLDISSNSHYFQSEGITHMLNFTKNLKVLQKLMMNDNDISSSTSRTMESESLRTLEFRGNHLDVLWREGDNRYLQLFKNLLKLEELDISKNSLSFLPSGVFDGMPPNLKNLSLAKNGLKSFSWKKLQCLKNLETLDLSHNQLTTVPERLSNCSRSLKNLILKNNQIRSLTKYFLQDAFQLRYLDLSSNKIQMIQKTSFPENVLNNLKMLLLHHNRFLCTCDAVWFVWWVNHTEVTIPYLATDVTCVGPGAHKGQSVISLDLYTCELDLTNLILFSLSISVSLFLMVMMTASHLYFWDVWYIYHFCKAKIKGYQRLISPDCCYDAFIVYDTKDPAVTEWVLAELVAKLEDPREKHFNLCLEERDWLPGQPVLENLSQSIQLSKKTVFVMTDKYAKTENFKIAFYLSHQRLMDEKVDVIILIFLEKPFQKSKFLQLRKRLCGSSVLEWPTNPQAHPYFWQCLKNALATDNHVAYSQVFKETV
Experiment: TLR7 inhibition reporter assay (HEK-Blue, SEAP)
Details: HEK-Blue cells overexpressing human TLR7, gardiquimod 7.5 μM, 22 hour incubation
Source text: TLR7/8/9 Inhibition Reporter Assays HEK-Blue™-cells (Invivogen) overexpressing human TLR7, TLR8 or TLR9 receptors were used for screening inhibitors of these receptors using an inducible SEAP (secreted embryonic alkaline phosphatase) reporter gene under the control of the IFN-β minimal promoter fused to five NF-κB and AP-1-binding sites. […]
ASSAY_METRIC: pIC50
Convention used: pIC50 is expressed as -log10 of the molar concentration.

Ask | Which pIC50 value belongs to Cc1cc(-c2[nH]c3ccc(C4CCN(CC(=O)N(C)C)CC4)cc3c2C(C)C)cn2cnnc12 [Example 12] ?
Reply | 8.82

Ask | Which pIC50 value belongs to Cc1cc(-c2[nH]c3ccc(C4CCNCC4)cc3c2C(C)C)cn2cnnc12 [Example 2] ?
Reply | 8.32

Ask | Which pIC50 value belongs to Cc1cc(-c2[nH]c3ccc(C4CCN(CC(C)(C)O)CC4)cc3c2C(C)C)cn2cnnc12 [Example 58] ?
Reply | 9.10

Ask | Which pIC50 value belongs to Cc1c(-c2[nH]c3ccc(C4CC(C)N(CC5(C)COC5)C(C)C4)cc3c2C(C)C)cn2cnnc2c1C (single isomer, unassigned) [Example 114] ?
Reply | 7.86

Ask | Which pIC50 value belongs to CC(C)c1c(-c2ccc3nncn3c2)[nH]c2ccc(C3CCN(C4CCOCC4)CC3)cc12 [Example 64] ?
Reply | 7.61

Ask | Which pIC50 value belongs to Cc1c(-c2[nH]c3ccc(C4CCN(C(=O)CN(C)C)CC4)cc3c2C(C)C)ccc2nncn12 [Example 108] ?
Reply | 7.10

Ask | Which pIC50 value belongs to Cc1nnc2ccc(-c3[nH]c4ccc(C5CCN(C(=O)CN(C)C)CC5)cc4c3C(C)C)cn12 [Example 106] ?
Reply | 7.37

Ask | Which pIC50 value belongs to Cc1c(-c2[nH]c3ccc(C4C[C@H]5CC[C@@H](C4)N5CC4(C)COC4)cc3c2C(C)C)cn2cnnc2c1C (single isomer, unassigned) [Example 121] ?
Reply | 8.49

Shift focus to the following entry.
Ask | Which pIC50 value belongs to Cc1c(-c2[nH]c3ccc(C4CCN(C5CCOCC5)CC4)cc3c2C(C)C)cn2cnnc2c1Cl [Example 81] ?
Reply | 8.60
